The reported numbers originate from ChEMBL document CHEMBL1140660.

Catalogue of pKi values
Study target: UniProt P09237
Sequence (P09237 whole entry): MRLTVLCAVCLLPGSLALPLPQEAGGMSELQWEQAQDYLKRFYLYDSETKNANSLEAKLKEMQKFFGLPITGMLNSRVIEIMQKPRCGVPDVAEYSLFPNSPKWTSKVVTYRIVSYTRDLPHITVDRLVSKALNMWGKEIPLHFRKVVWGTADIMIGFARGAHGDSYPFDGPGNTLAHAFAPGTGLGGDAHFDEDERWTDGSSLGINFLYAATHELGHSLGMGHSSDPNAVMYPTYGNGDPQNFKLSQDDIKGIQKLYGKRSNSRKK
Protocol: Inhibition of MMP7
pKi: −log10 of the molar value.

{"Molecule": "Cc1cc(COc2ccc(C(=O)NCCc3n[nH]c(=S)[nH]3)cc2)c2ccccc2n1", "Study target": "UniProt P09237", "pKi": "< 5.20"}
{"Molecule": "Cc1cc(COc2ccc(C(=O)N[C@@H]3CCC[C@@H]3c3n[nH]c(=S)[nH]3)cc2)c2ccccc2n1 (relative stereo)", "Study target": "UniProt P09237", "pKi": "< 5.20"}
{"Molecule": "Cc1cc(COc2ccc(C(=O)NC(C)(C)Cc3n[nH]c(=S)[nH]3)cc2)c2ccccc2n1", "Study target": "UniProt P09237", "pKi": "< 5.20"}
{"Molecule": "Cc1cc(COc2ccc(C(=O)NC3(Cc4n[nH]c(=S)[nH]4)CCOCC3)cc2)c2ccccc2n1", "Study target": "UniProt P09237", "pKi": 6.20}
{"Molecule": "Cc1cc(COc2ccc(C(=O)N[C@@H]3CCOC[C@@H]3c3n[nH]c(=S)[nH]3)cc2)c2ccccc2n1 (relative stereo)", "Study target": "UniProt P09237", "pKi": "< 5.20"}
{"Molecule": "CC(=O)N1CC[C@H](c2n[nH]c(=S)[nH]2)[C@H](NC(=O)c2ccc(OCc3cc(C)nc4ccccc34)cc2)C1 (relative stereo)", "Study target": "UniProt P09237", "pKi": "< 5.20"}
{"Molecule": "O=C(NCCCc1n[nH]c(=S)[nH]1)c1ccc(OCc2ccnc3ccccc23)cc1", "Study target": "UniProt P09237", "pKi": "< 5.20"}
{"Molecule": "Cc1cc(COc2ccc(C(=O)N[C@@H]3CCNC[C@@H]3c3n[nH]c(=S)[nH]3)cc2)c2ccccc2n1 (relative stereo)", "Study target": "UniProt P09237", "pKi": "< 5.20"}
{"Molecule": "CCCN1CC[C@H](c2n[nH]c(=S)[nH]2)[C@H](NC(=O)c2ccc(OCc3cc(C)nc4ccccc34)cc2)C1 (relative stereo)", "Study target": "UniProt P09237", "pKi": "< 5.20"}
{"Molecule": "Cc1cc(COc2ccc(C(=O)N[C@@H]3CN(C)CC[C@@H]3c3n[nH]c(=S)[nH]3)cc2)c2ccccc2n1 (relative stereo)", "Study target": "UniProt P09237", "pKi": 5.27}
{"Molecule": "Cc1cc(COc2ccc(C(=O)N[C@@H]3CN(C(C)C)CC[C@@H]3c3n[nH]c(=S)[nH]3)cc2)c2ccccc2n1 (relative stereo)", "Study target": "UniProt P09237", "pKi": "< 5.20"}
